A collection of compounds and their measured pEC50
Tested on: NCI-H358 cells (K-Ras G12C)
ASSAY DETAILS: Potency assay: pERK in NCI-H358 cells
Format: cell-based, human
CONDITION CONTEXT: Homo sapiens, NCI-H358; H358 KRAS G12C; read-out: pERK EC50
pEC50: −log10 of the molar value.

COMPOUND	pEC50
C=CC(=O)N1CC[C@H](C(=O)N(C)[C@H](C(=O)N[C@H]2Cc3cc(O)cc(c3)-c3ccc4c(c3)c(c(-c3cccnc3COC)n4CC#N)CC(C)(C)COC(=O)[C@@H]3CCCN(N3)C2=O)C(C)C)C1	> 5.30
C=CC(=O)N1CC[C@H](C(=O)N(C)[C@H](C(=O)N[C@H]2Cc3cc(O)cc(c3)-c3ccc4c(c3)c(c(-c3cccnc3)n4CC)CC(C)(C)COC(=O)[C@@H]3CCCN(N3)C2=O)C(C)C)C1	> 5.30
CO[C@@H](C)c1ncccc1-c1c2c3cc(ccc3n1CC(F)(F)F)-c1csc(n1)C[C@H](NC(=O)[C@H](C(C)C)N(C)C(=O)N1C[C@@H]3OCCN(C(=O)/C=C/C(F)F)[C@@H]3C1)C(=O)N1CCC[C@H](N1)C(=O)OCC(C)(C)C2 (atropisomer, axis not shown)	> 5.30
CCn1c(-c2cccnc2[C@H](C)OC)c2c3cc(ccc31)-c1cccc(c1)C[C@H](NC(=O)[C@H](C(C)C)N1CC[C@@]3(CCN(C(=O)C#C[C@@H]4COCCN4C4COC4)C3)C1=O)C(=O)N1CCC[C@H](N1)C(=O)OCC(C)(C)C2	> 5.30
